Target: ZAP-S (short isoform of zinc-finger antiviral protein) (human, UniProt Q7Z2W4-2 1-699)
Sequence (Q7Z2W4 other isoform, or with tags, fused parts or gaps): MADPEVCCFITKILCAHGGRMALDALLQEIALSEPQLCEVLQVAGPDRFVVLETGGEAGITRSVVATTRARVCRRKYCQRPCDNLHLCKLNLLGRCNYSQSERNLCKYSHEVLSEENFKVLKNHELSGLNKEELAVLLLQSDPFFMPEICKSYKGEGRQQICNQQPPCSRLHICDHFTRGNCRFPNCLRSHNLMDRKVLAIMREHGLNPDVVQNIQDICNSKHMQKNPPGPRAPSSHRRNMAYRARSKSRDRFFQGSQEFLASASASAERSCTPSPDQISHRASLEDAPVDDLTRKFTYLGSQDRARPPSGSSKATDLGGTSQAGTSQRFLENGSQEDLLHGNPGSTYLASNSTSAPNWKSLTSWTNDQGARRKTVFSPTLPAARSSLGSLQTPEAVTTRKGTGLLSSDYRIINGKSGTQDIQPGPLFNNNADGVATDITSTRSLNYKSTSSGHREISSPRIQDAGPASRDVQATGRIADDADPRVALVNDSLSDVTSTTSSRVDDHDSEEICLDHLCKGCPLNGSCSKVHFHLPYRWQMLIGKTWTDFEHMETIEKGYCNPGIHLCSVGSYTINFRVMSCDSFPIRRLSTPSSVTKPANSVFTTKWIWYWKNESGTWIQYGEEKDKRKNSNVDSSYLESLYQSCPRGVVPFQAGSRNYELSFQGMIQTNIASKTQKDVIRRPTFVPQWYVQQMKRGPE
Test: MST; 5 mM Mg2+
Details: protein: recombinant; tags: N-terminal 6xHis-SUMO; label: 3' pCp-Cy5; shorter pseudoknot (predicted)
readout.type: Kd (nM)
Express the result in nM but write the number alone.

Challenge: Please list Kd recorded for the binder dSL3 mutant (structured_RNA) RNA: UCGUUUUUAAACGGGUUUGCGGUGUAAGUGCAGCCCGUCUUACACCGUAUACAGGGCU
Response given: 175
